biological target: biotinylated human DLL3 protein expressed as a human IgG1 fusion protein (human) (UniProt Q9NYJ7); assay: Octet BLI; biotinylated huDLL3-IgG1 fusion on streptavidin tips; single 50 nM; conditioned medium
Sequence (Q9NYJ7 other isoform, or with tags, fused parts or gaps): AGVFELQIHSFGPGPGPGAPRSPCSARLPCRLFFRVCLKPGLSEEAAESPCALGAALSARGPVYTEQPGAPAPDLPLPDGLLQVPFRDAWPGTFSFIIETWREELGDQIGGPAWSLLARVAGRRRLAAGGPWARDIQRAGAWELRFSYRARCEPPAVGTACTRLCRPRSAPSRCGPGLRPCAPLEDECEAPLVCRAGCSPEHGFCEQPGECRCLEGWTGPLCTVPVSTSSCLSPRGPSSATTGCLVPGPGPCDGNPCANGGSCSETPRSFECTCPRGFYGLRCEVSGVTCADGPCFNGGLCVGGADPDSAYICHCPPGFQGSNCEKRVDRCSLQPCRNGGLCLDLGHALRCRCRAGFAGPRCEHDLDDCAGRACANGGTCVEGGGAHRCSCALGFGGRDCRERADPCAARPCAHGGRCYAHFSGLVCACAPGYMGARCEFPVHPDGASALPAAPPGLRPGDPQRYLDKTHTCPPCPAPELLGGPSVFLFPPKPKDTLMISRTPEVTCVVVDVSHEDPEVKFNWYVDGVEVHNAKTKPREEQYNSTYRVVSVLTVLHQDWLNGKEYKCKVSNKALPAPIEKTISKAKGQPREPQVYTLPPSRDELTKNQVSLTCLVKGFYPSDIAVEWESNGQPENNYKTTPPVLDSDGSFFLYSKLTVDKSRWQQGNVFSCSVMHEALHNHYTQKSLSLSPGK
Each entry below carries its recorded pKd.
Just the number, please; pKd means minus log10 of the concentration in mol/L.

anti-DLL3 trispecific protein 4D08 (protein, part only; not given: anti-CD3 and anti-albumin domains, part only) chain, part: EVQLVESGGGLVQPGGSLTLSCAASGSSVNFLSMAWYRQAPGKKRELVAGISADGSTHYIDSVKGRFTISRDNAKNSVYLQMNSLRAEDTAVYYCYAYRWLTRYTYWGQGTLVTVSSGGGGSGGGSGGGGSGGGSHHHHHH :: 8.23
anti-DLL3 trispecific protein 2B02 (protein, part only; not given: CD3 binder and albumin binder, part only) chain, part: EVQLVESGGGLVQPGGSLTLSCVASGSTSSINAMAWYRRAPGKQRELVAGISSDGSKVYADSVKGRFTISRDNAKNSVYLQMNSLRAEDTAVYYCYYFRTKSGSSMRYWGQGTLVTVSSGGGGSGGGSGGGGSGGGSHHHHHH :: 8.18
anti-DLL3 trispecific protein 4E02 (protein, part only; not given: CD3 binder and albumin binder, part only) chain, part: EVQLVESGGGLVQPGGSLTLSCAASGSQVSFLSMAWYRQAPGKKRELVAGISADGSTVYIDSVKGRFTISRDNAKNSVYLQMNSLRAEDTAVYYCYAYRWSTRYTYWGQGTLVTVSSGGGGSGGGSGGGGSGGGSHHHHHH :: 8.42

Now let's try a different one.
Fill in the blank: the reported pKd of anti-DLL3 trispecific protein 1F010 (protein, part only; not given: anti-CD3 fragment and anti-albumin sdAb, part only) chain, part: EVQLVESGGGLVQPGGSLTLSCVASGSTSRINAMGWYRRAPGKQRELVAGISSDGSKVYKDSVKGRFTISRDNAKNSVYLQMNSLRAEDTAVYYCYYFRTVSGSSMRYWGQGTLVTVSSGGGGSGGGSGGGGSGGGSHHHHHH is ____.
8.20

Provenance of the data: patent US20200095340A1
